Please go through the items and note down their ShexaP (4.2 min).
System: lipase AY 30
Test: Effect of the solvent on lipase AY 30 catalyzed deacylation of SOP
Format: biochemical, Candida cylindracea
Conditions: lipase AY 30, 24 hrs, HPLC peak 4.2 min
Numbers only, in %.

Summary for this compound, CC(C)=O [acetone] : ShexaP (4.2 min) is 0

Summary for this compound, CC(C)OC(C)C [diisopropyl ether] : ShexaP (4.2 min) is 13.0

Would you mind giving ShexaP (4.2 min) for every compound in the list below?
1. CCC(C)=O [butanone]
2. CCCCCCCCO [octanol]
3. Cc1ccccc1 [toluene]
4. C1CCOC1 [THF, tetrahydrofuran]
5. COC(C)(C)C [t-butyl methyl ether]
6. ClC(Cl)(Cl)Cl [CCl4, carbon tetrachloride]
7. CCCCCCCO [heptanol]

Reply text:
0
0
0.2
0.3
0.8
0
0

* * *

Test system: lipase AY 30
Experiment: Effect of the solvent on lipase AY 30 catalyzed deacylation of SOP
Type: biochemical, Candida cylindracea
Details: lipase AY 30, solvent as labelled, 200 mM butanol, 24 hrs; peak 21.4 min
The label depends only on SOA: 1 (yes) if it is at least 90%, 0 (no) if it is smaller.

Inquiry: Form field: SOA at least 90%? Entry: ClC(Cl)(Cl)Cl [CCl4, carbon tetrachloride]
Reply text: 1 (yes)

Inquiry: Form field: SOA at least 90%? Entry: CC(C)OC(C)C
Reply text: 0 (no)

Inquiry: Form field: SOA at least 90%? Entry: CCCCOC(C)=O [n-butyl acetate]
Reply text: 1 (yes)

Inquiry: Form field: SOA at least 90%? Entry: CCCCCCCO
Reply text: 1 (yes)

Inquiry: Form field: SOA at least 90%? Entry: C1CCCCC1
Reply text: 0 (no)

Inquiry: Form field: SOA at least 90%? Entry: CCCCCCC
Reply text: 0 (no)

Inquiry: Form field: SOA at least 90%? Entry: CC#N
Reply text: 1 (yes)

Inquiry: Form field: SOA at least 90%? Entry: CCCCCCCC
Reply text: 0 (no)

* * *

System: lipase AY 30
Experiment: Effect of the solvent on lipase AY 30 catalyzed deacylation of SOP; as to SheptaP's ([…]): HPLC peak 8.2 min
Format: biochemical, Candida cylindracea
Settings: lipase AY 30, 24 hrs, HPLC peak […]
For each record, check the reported SheptaP's ([…]): if it is below 3% write T, else write F.

Inquiry: Given ClC(Cl)(Cl)Cl [CCl4, carbon tetrachloride] , is recorded SheptaP's ([…]) strictly lower than 3%?
Reply text: T

Inquiry: Given CC(C)=O , is recorded SheptaP's ([…]) strictly lower than 3%?
Reply text: T

Inquiry: Given Cc1ccccc1 , is recorded SheptaP's ([…]) strictly lower than 3%?
Reply text: T

Others:
Inquiry: Given CCCCCC , is recorded SheptaP's ([…]) strictly lower than 3%?
Reply text: F

Inquiry: Given C1CCCCC1 , is recorded SheptaP's ([…]) strictly lower than 3%?
Reply text: F

Inquiry: Given CC#N , is recorded SheptaP's ([…]) strictly lower than 3%?
Reply text: T

Inquiry: Given CCCCCCCC , is recorded SheptaP's ([…]) strictly lower than 3%?
Reply text: F

Inquiry: Given C1CCOC1 [THF, tetrahydrofuran] , is recorded SheptaP's ([…]) strictly lower than 3%?
Reply text: T

Inquiry: Given CC(C)OC(C)C , is recorded SheptaP's ([…]) strictly lower than 3%?
Reply text: F

Inquiry: Given CCC(C)=O , is recorded SheptaP's ([…]) strictly lower than 3%?
Reply text: T

Inquiry: Given CCCCCCC , is recorded SheptaP's ([…]) strictly lower than 3%?
Reply text: F

* * *

Test system: lipase AP 12
Assay: Solvent effect on lipase AP 12 catalyzed deacetylation of SOA
Assay type: biochemical, Aspergillus niger
Conditions: lipase AP 12, solvent as labelled, 24 hrs
Please go through the items and note down their ShexaA.
One number for each entry, in %.

Summary for this molecule, Cc1ccccc1 [toluene] : ShexaA is 0

Would you mind giving ShexaA for every molecule in the list below?
1. C1CCOC1 [THF, tetrahydrofuran]
2. ClC(Cl)(Cl)Cl [CCl4, carbon tetrachloride]
3. CCCOCCC [dipropyl ether]
4. CC(C)OC(C)C [diisopropyl ether]
5. COc1ccccc1 [anisole]
6. c1ccccc1 [benzene]

Reply text:
1. 0
2. 0.6
3. 2.3
4. 1.6
5. 0
6. 0

Would you mind giving ShexaA for every molecule in the list below?
1. CCCCOC(C)=O [n-butyl acetate]
2. CCCCOCC [butyl ethyl ether]

Reply text:
0
2.1

* * *

Test system: lipase AY 30
Assay: Effect of the solvent on lipase AY 30 SOA deacetylation
Type: biochemical, Candida cylindracea
Conditions: lipase AY 30, solvent as labelled, 24 hrs
measured.parameter: SOA

Entry CCCCOC(C)=O [n-butyl acetate] : SOA on lipase AY 30 = 95.2%

Entry CC#N [acetonitrile] : SOA on lipase AY 30 = 98.6%

Entry OC1CCCCC1 [cyclohexanol] : SOA on lipase AY 30 = 96.8%

Entry ClC(Cl)Cl [chloroform] : SOA on lipase AY 30 = 86.7%

Would you mind giving SOA for every molecule in the list below?
1. COc1ccccc1 [anisole]
2. CCCCCCCO [heptanol]
3. CC1CCCO1 (centres unmarked) [2-methyl THF, 2-methyltetrahydrofuran]
4. Cc1ccccc1 [toluene]
5. O=C1CCCCC1 [cyclohexanone]
6. CCCCOCC [butyl ethyl ether]
7. C1CCOC1 [THF, tetrahydrofuran]

Reply text:
["86.1%", "93.4%", "96.2%", "78.7%", "97.5%", "73.9%", "98.7%"]

Would you mind giving SOA for every molecule in the list below?
1. CC(C)=O [acetone]
2. CCCCC(=O)CC [3-heptanone]
3. CC1CCC(C)O1 (centres unmarked) [2,5-dimethyl THF, 2,5-dimethyltetrahydrofuran]

Reply text:
98.6%
85.1%
96.2%

Would you mind giving SOA for every molecule in the list below?
1. CCOC(C)(C)C [t-butyl ethyl ether]
2. ClC(Cl)(Cl)Cl [CCl4, carbon tetrachloride]
3. CC1(C)CCC(C)(C)O1 [2,2,5,5-tetramethyl THF, 2,2,5,5-tetramethyltetrahydrofuran]
4. CCC(C)(C)OC [t-amyl methyl ether]
5. CCCOCCC [dipropyl ether]

Reply text:
["40.8%", "86.9%", "68.4%", "45%", "51.6%"]

* * *

Please go through the items and note down their SheptaA.
System: lipase AY 30 deposited on Hyflo Super Cell
Assay: Solvent effect on lipase AY 30 deposited on Hyflo Super Cell catalyzed deacetylation of SOA
Assay type: biochemical, Candida cylindracea
Conditions: immobilized lipase AY 30, 24 hrs

Summary for this molecule, ClC(Cl)(Cl)Cl [CCl4, carbon tetrachloride] : SheptaA is 2.5%

Would you mind giving SheptaA for every molecule in the list below?
1. CCCOCCC
2. c1ccccc1
3. Cc1ccccc1

Reply text:
1: 6.6%; 2: 2.1%; 3: 5.5%

Would you mind giving SheptaA for every molecule in the list below?
1. COc1ccccc1
2. CCCCOC(C)=O [n-butyl acetate]

Reply text:
["1.2%", "2.4%"]

Would you mind giving SheptaA for every molecule in the list below?
1. C1CCOC1 [THF, tetrahydrofuran]
2. CCCCOCC

Reply text:
1: 2.0%; 2: 4.0%

Would you mind giving SheptaA for every molecule in the list below?
1. COC(C)(C)C
2. CC(C)OC(C)C

Reply text:
["4.0%", "14.3%"]

* * *

System: lipase AY 30
Assay: Effect of the solvent on lipase AY 30 SOA deacetylation
Assay type: biochemical, Candida cylindracea
Conditions: lipase AY 30, solvent as labelled, 24 hrs
For each record, check the reported ShexaA: if it is below 4% write Satisfied, else write Not satisfied.

Take a look at these entries with their results.
Inquiry: Given ClC(Cl)Cl [chloroform] , is recorded ShexaA strictly lower than 4%?
Reply text: Satisfied

Inquiry: Given OC1CCCCC1 , is recorded ShexaA strictly lower than 4%?
Reply text: Satisfied

Inquiry: Given CCOC(C)(C)C , is recorded ShexaA strictly lower than 4%?
Reply text: Not satisfied

Inquiry: Given CCC(C)(C)OC , is recorded ShexaA strictly lower than 4%?
Reply text: Not satisfied

Inquiry: Given CC1CCC(C)O1 (stereo not shown) [2,5-dimethyl THF, 2,5-dimethyltetrahydrofuran] , is recorded ShexaA strictly lower than 4%?
Reply text: Satisfied

Inquiry: Given CCOCCOCC , is recorded ShexaA strictly lower than 4%?
Reply text: Satisfied

Inquiry: Given COc1ccccc1 , is recorded ShexaA strictly lower than 4%?
Reply text: Not satisfied

Inquiry: Given CCCOCCC , is recorded ShexaA strictly lower than 4%?
Reply text: Not satisfied

Others:
Inquiry: Given CCCCOC(C)=O [n-butyl acetate] , is recorded ShexaA strictly lower than 4%?
Reply text: Satisfied

Inquiry: Given ClC(Cl)(Cl)Cl [CCl4, carbon tetrachloride] , is recorded ShexaA strictly lower than 4%?
Reply text: Satisfied

Inquiry: Given CCCCOCC , is recorded ShexaA strictly lower than 4%?
Reply text: Not satisfied

Inquiry: Given CC(C)OC(C)C , is recorded ShexaA strictly lower than 4%?
Reply text: Not satisfied

Inquiry: Given CCCCCCCO , is recorded ShexaA strictly lower than 4%?
Reply text: Satisfied
